- TARGET_OF_ASSAY: human β2AR (human, UniProt P07550 2-365)
- EXPERIMENT_NOTES: cell-based or functional assay
Bridge positions count the residues as written; N and C are the ends. Square brackets hold non-standard residues; d marks the D form. Primed or numbered codes have the meaning given here. Pra″ = alkyne-bearing residue joined to Azk by a CuAAC triazole staple; Lys(N3) = [N-]=[N+]=NCCCC[C@H](N)C(=O)O
IC50 (nM) of isoproterenol, [3H]-DHA RLA, peptidomimetic present by entry:
MEASUREMENT_KIND: IC50 (nM) of isoproterenol, [3H]-DHA RLA, peptidomimetic present

- BINDER: "Ac-KKKFN[Pra″]CRD[Lys(N3)]IQRMHLRQYEFL-OH (triazole 6-10) [compound 62]"
  EXPERIMENTAL_RESULT: "17.1 nM"
- BINDER: "Ac-FNDCRDIIQRMHLRQYEFL-OH [compound 68]"
  EXPERIMENTAL_RESULT: "54.6 nM"
- BINDER: "Ac-FNDCRDIIQRMHLRQYELL-OH [compound 2]"
  EXPERIMENTAL_RESULT: "124 nM"
- BINDER: "Ac-FNDCRDIIQRMHLRQYEWL-OH [compound 69]"
  EXPERIMENTAL_RESULT: "28.9 nM"
